Every entry's value here was drawn from the supplement of paper PMC6555819.

System: PPARg:RXRa (NR concentration 180 nM, RXRa partner concentration 90 nM)
Experiment: PBM binding z-score (relative to random genomic background probes); higher = stronger binding; sequences stand for … in GC…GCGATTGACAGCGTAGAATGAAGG
Cut-off 0.8 on PBM binding z-score, inclusive. At or above means Criterion met; below means Criterion not met.

Consider the worked cases shown below.
Is it the case that `ATCTCTAGGTAAAGTTGAGTGAAAGATCGATAGA` has PBM binding z-score reaching or exceeding 0.8?
Criterion met

Would you kindly repeat that for `TATCCTAGGTCATGCGGGCCAGTATAGTGTCGGC` ?
Criterion met

Would you kindly repeat that for `TAGGCTAGGTCAGATCGGGCCAGTATACGCTATA` ?
Criterion not met

Would you kindly repeat that for `TGTCAAATTTCAAAGGTAACGTAAGTATCCACAC` ?
Criterion not met

Would you kindly repeat that for `CGAACTAGGTCAAGCACAGTGAATCTCCGCACGC` ?
Criterion met

More entries:
Is it the case that `TCTTGTAGCTCAACAGGAGGTTAAGAAAGATCGA` has PBM binding z-score reaching or exceeding 0.8?
Criterion not met

Would you kindly repeat that for `TAGCCTCGGTCATGCGGGCCAGTATAGTGTCGGC` ?
Criterion not met

Would you kindly repeat that for `TCATATAGGTAAAGGTGCAAGTCGAACGATATGA` ?
Criterion met

Would you kindly repeat that for `TCTATTAGTTGATTAGGGAAACCGAAACAGCGGA` ?
Criterion not met

Would you kindly repeat that for `AGAACGAGGGGACGCTGAGTTGATAGCAGAGTAG` ?
Criterion not met

Would you kindly repeat that for `ATCGTAAGGTCGAAGGTGAGTATACCCACCCGAA` ?
Criterion met

====

Tested on: RARa:RXR (NR concentration 270 nM, RXRa partner concentration 90 nM)
Assay: PBM binding z-score (relative to random genomic background probes); higher = stronger binding; sequences stand for … in GC…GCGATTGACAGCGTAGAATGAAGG
Cut-off 2 on PBM binding z-score, inclusive. At or above means yes; below means no.

Consider the worked cases shown below.
Is it the case that `CGATCTAGGTCATTGACAGGACAGTGAATAGTAA` has PBM binding z-score reaching or exceeding 2?
yes

Would you kindly repeat that for `CGTCCAAGGTCAGCAGGTCAGTGATAGCGACGTG` ?
yes

More entries:
Is it the case that `TAGCCCAGGTCAGATCGGGCCAGTATACGCTATA` has PBM binding z-score reaching or exceeding 2?
no

Would you kindly repeat that for `CCTTACGGGTCACTGACAGGTTATATCATTTGGA` ?
yes

Would you kindly repeat that for `CCTAGCAGGCAAATCTGGGTCACTCAAGGCTTGA` ?
no

Would you kindly repeat that for `TCATATAGGTAAAAGGTGAAAGGCGGTGTGGTAA` ?
yes

Would you kindly repeat that for `AGAATGAGGTTAAGATCAGGGATACAGAATACAT` ?
yes

Would you kindly repeat that for `ATATGTACGTTATCGGGTCATTCAGTTTGCGCAT` ?
yes

====

System: LXRa:RXRa (NR concentration 270 nM, RXRa partner concentration 90 nM)
Assay: PBM binding z-score (relative to random genomic background probes); higher = stronger binding; sequences stand for … in GC…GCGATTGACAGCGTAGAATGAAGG
readout_type: PBM binding z-score
// keep it numeric: no unit symbol after the value

# count of solved cases: 2
Look at this sequence and give its reported PBM binding z-score. `AGTCAAAGTACACTAGGTAACGTAAGATTCAGCT`
-0.26

Would you kindly repeat that for `GCAGATAGGTGAAACGCAGGTAACTCAGGGTGGC` ?
0.0468

More entries:
Look at this sequence and give its reported PBM binding z-score. `ACAGACAGGTGAGTGAAGGTAAGTCAGCTGGACG`
0.000763

Would you kindly repeat that for `TCTTGTAGTTCAATAGAGGTTAAGAAAGTGCGCT` ?
5.37

Would you kindly repeat that for `ATATGTAGGGTAGCTGGGGTCATTCAGACTAGGC` ?
4.07

Would you kindly repeat that for `AGTCAAAGTTCAGGAAGAGGTAACGTAAAGCACG` ?
3.76

Would you kindly repeat that for `GCTGCTTGGTCAACTGATGGTCAGCTAAAGCTCG` ?
-0.552
